Ref: paper PMC8781238

# system.under.test: recombinant human SphK2 (Homo sapiens, UniProt Q9NRA0)
# Sequence (Q9NRA0 whole entry): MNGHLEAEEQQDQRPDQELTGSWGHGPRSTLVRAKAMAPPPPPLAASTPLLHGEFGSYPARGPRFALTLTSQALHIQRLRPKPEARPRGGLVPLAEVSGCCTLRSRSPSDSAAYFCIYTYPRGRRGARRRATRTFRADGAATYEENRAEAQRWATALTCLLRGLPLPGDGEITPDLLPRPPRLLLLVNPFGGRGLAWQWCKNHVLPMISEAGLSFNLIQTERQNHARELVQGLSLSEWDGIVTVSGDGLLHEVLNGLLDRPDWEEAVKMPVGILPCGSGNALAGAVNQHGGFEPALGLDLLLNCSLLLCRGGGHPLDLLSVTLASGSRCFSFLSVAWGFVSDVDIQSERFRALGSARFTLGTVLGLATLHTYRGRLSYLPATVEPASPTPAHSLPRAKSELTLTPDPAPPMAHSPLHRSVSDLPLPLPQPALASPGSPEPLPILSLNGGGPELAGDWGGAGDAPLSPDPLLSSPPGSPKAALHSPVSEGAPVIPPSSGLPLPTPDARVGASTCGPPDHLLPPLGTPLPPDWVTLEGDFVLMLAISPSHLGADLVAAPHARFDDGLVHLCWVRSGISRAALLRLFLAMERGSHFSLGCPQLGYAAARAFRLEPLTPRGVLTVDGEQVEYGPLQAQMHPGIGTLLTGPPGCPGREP
# assay: ADP-Glo kinase assay, SphK2
# assay.conditions: comparison of SphK1 and SphK2 activity at 125 µM compound (Fig. 5)
result.type: Selectivity/specificity for SphK2 over SphK1 (in words)

Cl.N=C(N)N1CCC[C@H]1c1nc(-c2ccc(Cn3cc(C4CC4)nn3)cc2)no1 [Compound 25h]	high selective
CCCCc1cn(Cc2ccc(-c3noc([C@@H]4CCCN4C(=N)N)n3)cc2)nn1.Cl [Compound 25f]	high selective
Cl.N=C(N)C1(c2nc(-c3ccc(Cn4cc(-c5ccccc5)nn4)cc3)no2)CC1 [Compound 29a]	highly selective
Cl.Cn1cc(-c2cn(Cc3ccc(-c4noc(C5(C(=N)N)CC5)n4)cc3)nn2)cn1 [Compound 29b]	highly selective
